From: PubChem BioAssay AID720582

Experimental Target: Disintegrin and metalloproteinase domain-containing protein 10 (Homo sapiens)
Test: blockers of ADAM10 peptide cleavage – biochemical, QFRET, HTS, primary screen (AID 720582)
Reported Conditions: recombinant ADAM10, EDANS/DABCYL FRET peptide cleavage, 3 h; at 7 µM
Screen size: about 370,000 compounds; about 2,300 (0.62%) were called active.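 How the source made its calls: active means inhibition above a per-campaign cutoff equal to the mean of compounds falling between control-based bounds plus 3 SD (cut at about 20% in these data); inactive means the rest.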 The full list was thinned out, with actives kept by preference.
Give one outcome, nothing more. List: yes for active, no for inactive

Examples from the recorded data:
In [3]: df
Out[3]:
                                   compound                       experimental_target  group_label
0  Cc1cccc(NC(=O)C[C@H]2CC[C@H]3[C@@H](COc4ccc(NC(=O)Nc5ccccc5)cc4C(=O)N3C)O2)c1  Disintegrin and metalloproteinase domain-containing protein 10 (Homo sapiens)           no
1  Cc1cc(C)cc(NC(=O)N2CCC(N(C)CCC(C)C)CC2)c1  Disintegrin and metalloproteinase domain-containing protein 10 (Homo sapiens)           no
2  C=CCN1C(C(=O)OC)CN(Cc2cn(Cc3ccccc3)nn2)CCS1(=O)=O (stereo not given)  Disintegrin and metalloproteinase domain-containing protein 10 (Homo sapiens)           no
3  O=C(CSc1nnc(-c2ccccc2)n1Cc1ccco1)Nc1ccccc1-c1ccccc1  Disintegrin and metalloproteinase domain-containing protein 10 (Homo sapiens)           no
4  C=CCC[C@H](Cc1ccc(F)cc1)C(=O)OC[C@@H](NC(=O)[C@@H](CC=C)CC(=O)N[C@H](CO)Cc1ccccc1)C(C)(C)C  Disintegrin and metalloproteinase domain-containing protein 10 (Homo sapiens)           no

Consider the record given below.
Input line: // return assay outcome for `Cc1ccc(Cn2cc(CN3[C@@H](C)COc4cc(Br)ccc4S3(=O)=O)nn2)cc1`
Output line: no
